meta.source: patent US12234227B2

Biological target: human H4 receptor (Homo sapiens)
Construct: expressed in transfected cells; host or cells: HEKf cells transduced with baculovirus
Assay: H4 Antagonist Functional cAMP Gi Assay
Format: cell-based
Conditions: H4 antagonist activity, read-out: Human H4 CAMP fpKb (converted)
Counter-ions that a name gives are not always drawn.
quantity-measured: Kb (nM)

molecule	unit-name	result
CN[C@@H]1CCN(c2cc(-c3cnn(C)c3C)nc(N)n2)C1	nM	7.94
CN[C@@H]1CCN(c2cc(-c3[nH]nc(C(F)F)c3C)nc(N)n2)C1 [Example 17-10, ditrifluoroacetate]	nM	0.251
CNC1CN(c2cc(-c3[nH]ncc3C)nc(N)n2)C1 [Example 16-3, ditrifluoroacetate]	nM	7.94
CN[C@@H]1CCN(c2cc(-c3ccn(C(F)F)n3)nc(N)n2)C1 [Example 2-2, dihydrochloride]	nM	50.1
CN[C@@H]1CCN(c2cc(-c3cnn(C4COC4)c3)nc(N)n2)C1	nM	501

[a] CN[C@@H]1CCN(c2cc(-c3cnn(C(F)F)c3)nc(N)n2)C1
[b] CN[C@@H]1CCN(c2cc(-c3cc(C)n(C(F)F)n3)nc(N)n2)C1
Query: Field: lower recorded Kb (choose a or b ) API: response body contains the label of the selected item.
Response: a
(a: 20 nM, b: 398 nM)

[1] CN[C@@H]1CCN(c2cc(-c3cnn(C4CC4)c3)nc(N)n2)C1
[2] CN[C@H]1CCN(c2cc(-c3[nH]ncc3C)nc(N)n2)C1 [Example 16-1, ditrifluoroacetate]
Query: // compare measured Kb, left 1 , right 2 , return larger API: response body contains the label of the selected item.
Response: 1
(1: 50.1 nM, 2: 31.6 nM)

[P] CCc1nn(C)cc1-c1cc(N2CC[C@@H](NC)C2)nc(N)n1 [Example 11-2, dihydrochloride]
[Q] CN[C@@H]1CCN(c2cc(-c3cnn(CCO)c3)nc(N)n2)C1
[R] CN[C@@H]1CCN(c2cc(-c3cnn(CC#N)c3)nc(N)n2)C1
[S] Cc1n[nH]c(-c2cc(N3CC[C@@H](N)C3)nc(N)n2)c1Cl
Query: Arrange by Kb, high to low. Your answer should be the labels, listed in the requested order.
Response: Q, R, P, S
(Q: 631 nM, R: 200 nM, P: 79.4 nM, S: 2 nM)

[a] CCc1n[nH]c(-c2cc(N3CC[C@@H](N)C3)nc(N)n2)c1C
[b] Nc1nc(-c2cnn(CC(F)(F)F)c2)cc(N2CC[C@@H](N)C2)n1 [Example 8-18, dihydrochloride]
[c] CN[C@@H]1CCN(c2cc(-c3[nH]nc4c3CCC4)nc(N)n2)C1
Query: Rank items: key Kb, increasing. Your answer should be the labels, listed in the requested order.
Response: c, a, b
(c: 6.31 nM, a: 126 nM, b: 501 nM)

[P] Nc1nc(-c2[nH]ncc2Cl)cc(N2CC[C@@H](N)C2)n1
[Q] CN[C@@H]1CCN(c2cc(-c3cn[nH]c3)nc(N)n2)C1
Query: Field: lower recorded Kb (choose P or Q ) API: response body contains the label of the selected item.
Response: P
(P: 7.94 nM, Q: 100 nM)
